Data origin: patent US10626112B2

# Tested System: human TRPA1 (Homo sapiens (Human))
# Sequence (O75762 whole entry): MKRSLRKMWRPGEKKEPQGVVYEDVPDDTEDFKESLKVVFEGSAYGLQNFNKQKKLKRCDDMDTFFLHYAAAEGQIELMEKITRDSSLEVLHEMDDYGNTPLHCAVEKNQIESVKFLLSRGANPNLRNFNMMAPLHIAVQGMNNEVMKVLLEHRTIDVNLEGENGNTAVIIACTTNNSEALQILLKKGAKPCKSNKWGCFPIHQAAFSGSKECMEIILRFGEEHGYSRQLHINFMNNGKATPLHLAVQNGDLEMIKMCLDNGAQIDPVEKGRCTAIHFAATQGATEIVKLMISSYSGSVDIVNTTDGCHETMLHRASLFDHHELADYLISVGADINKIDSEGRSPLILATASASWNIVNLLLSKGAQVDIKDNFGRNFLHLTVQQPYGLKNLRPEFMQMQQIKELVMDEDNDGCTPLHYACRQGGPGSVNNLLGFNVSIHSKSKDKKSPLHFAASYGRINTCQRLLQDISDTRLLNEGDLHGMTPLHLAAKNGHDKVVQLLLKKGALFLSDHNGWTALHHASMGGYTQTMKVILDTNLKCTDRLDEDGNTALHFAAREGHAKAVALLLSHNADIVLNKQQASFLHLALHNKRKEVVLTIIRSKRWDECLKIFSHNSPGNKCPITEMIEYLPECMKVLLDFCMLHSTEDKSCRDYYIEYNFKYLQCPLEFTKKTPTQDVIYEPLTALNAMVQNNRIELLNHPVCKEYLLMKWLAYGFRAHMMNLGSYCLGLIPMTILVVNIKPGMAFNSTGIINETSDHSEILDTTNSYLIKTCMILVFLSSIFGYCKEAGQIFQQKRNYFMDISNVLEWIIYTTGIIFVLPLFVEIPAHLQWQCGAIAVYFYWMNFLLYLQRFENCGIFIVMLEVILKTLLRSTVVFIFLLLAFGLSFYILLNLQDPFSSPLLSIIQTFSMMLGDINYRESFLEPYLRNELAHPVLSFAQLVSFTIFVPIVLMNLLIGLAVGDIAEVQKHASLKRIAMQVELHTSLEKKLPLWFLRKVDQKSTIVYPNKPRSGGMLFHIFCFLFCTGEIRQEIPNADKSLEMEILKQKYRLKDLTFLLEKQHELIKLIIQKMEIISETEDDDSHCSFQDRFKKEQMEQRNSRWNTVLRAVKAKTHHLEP
# Test: Measurement of TRPA1 antagonist activity (1): intracellular calcium increase
# Type: cell-based
# Measurement Context: 293T cells transfected with human TRPA1 expression plasmid; allylisothiocyanate 20 μM stimulation; intracellular calcium fluorescence; read-out: hTRPA1 IC50
Assay Metric: IC50 (nM)

> print(dat)
                              sample.smiles  quantity.unit  test.value
1  O=C(NCc1cc(-c2ccc(C(F)(F)F)cc2)ncn1)[C@@H]1CCCN1S(=O)(=O)c1cc2cnccc2o1             nM         3.8

[I] O=C(NCc1cccc(OS(=O)(=O)c2cc3cc(F)ccc3o2)c1)[C@@H]1CCCN1S(=O)(=O)c1cc2cc(F)ccc2o1
[II] O=C(NCc1cccc(S(=O)(=O)c2ccc(C(F)(F)F)cc2)c1)[C@@H]1CCCN1S(=O)(=O)c1cc2ccccc2o1
[III] O=C(NCc1cccc(Cc2ccccc2)c1)[C@@H]1CCCN1S(=O)(=O)c1cc2cc(F)ccc2o1
Sort the 3 compounds by IC50; largest first, smallest last. Please list each label once, in the requested order.
II, I, III
(II: 310 nM, I: 69 nM, III: 27 nM)
